Tested on: eIF2α in HEK293-EGFP-eIF2α cells
Experiment: PERK Cellular Assay (HEK293-EGFP-eIF2α cells, tunicamycin-induced ER stress, TR-FRET)
Type: cell-based
Details: tunicamycin 2 hours
pIC50: −log10 of the molar value.
The entries below come with measured pIC50 values attached.

# annotated cases, reported pIC50 shown
Cc1cc(F)cc(C(O)C(=O)Nc2ccc(-c3nc(C)n4c(C)cnc(N)c34)c(C)c2)c1 (stereo not shown) [Example 62] = 7.60 to 9.00
Cc1cc(NC(=O)C(O)c2cccc(F)c2)ccc1-c1nc(C)n2ccnc(N)c12 (stereo not shown) [Example 2] = 6.30 to 6.60

Which value of pIC50 has been reported for [2H]C([2H])([2H])c1nc(-c2ccc(NC(=O)C(O)c3cc(F)cc(C(F)(F)F)c3)cc2C)c2c(N)ncc(Cl)n12 (stereo not shown) [Example 56] in the records?
7.60 to 9.00

Which value of pIC50 has been reported for [2H]C([2H])([2H])c1nc(-c2ccc(NC(=O)C(O)c3cc(F)cc(C(F)(F)F)c3)c(F)c2F)c2c(N)ncc(Cl)n12 (stereo not shown) [Example 165] in the records?
6.60 to 7.00

###

Test system: eIF2α in HEK293-EGFP-eIF2α cells
Test: PERK Cellular Assay (HEK293-EGFP-eIF2α cells, tunicamycin-induced ER stress, TR-FRET)
Format: cell-based
Settings: tunicamycin 2 hours
ATTRIBUTE MEASURED: IC50

# annotated cases, reported IC50 shown
[2H]C([2H])([2H])c1nc(-c2ccc(NC(=O)C(O)c3cc(F)cc(C(F)(F)F)c3)c(F)c2F)c2c(N)nc(C)cn12 (centres unmarked) [Example 167] = 101 to 250 nM
Cc1cc(NC(=O)C(O)c2cccc(F)c2)ccc1-c1nc(C)n2c(Cl)cnc(N)c12 (centres unmarked) [Example 29] = 26 to 50 nM
[2H]C([2H])([2H])c1nc(-c2ccc(NC(=O)C(O)c3cccc(F)c3)c(F)c2F)c2c(N)ncc(C(F)(F)F)n12 (centres unmarked) [Example 135] = 501 to 1000 nM
[2H]C([2H])([2H])c1nc(-c2ccc(NC(=O)C(O)c3cccc(F)c3)c(F)c2)c2c(N)nc(C)cn12 (centres unmarked) [Example 120] = 1000 to 2000 nM
[2H]C([2H])([2H])c1nc(-c2ccc(NC(=O)C(O)c3cccc(Cl)c3)c(F)c2F)c2c(N)ncc(C(F)(F)F)n12 (centres unmarked) [Example 142] = 1 to 25 nM

Which value of IC50 has been reported for [2H]C([2H])([2H])c1nc(-c2ccc(NC(=O)C(O)c3cccc(C(F)(F)F)c3)cc2C)c2c(N)ncc(C(F)(F)F)n12 (centres unmarked) [Example 21] in the records?
501 to 1000 nM

Which value of IC50 has been reported for [2H]C([2H])([2H])c1nc(-c2ccc(NC(=O)C(O)c3cccc(F)c3)cc2C)c2c(N)ncc(C(F)(F)F)n12 (centres unmarked) [Example 31] in the records?
251 to 500 nM

Which value of IC50 has been reported for Cc1cn2c(C)nc(-c3ccc(NC(=O)C(O)c4cccc(F)c4)c(F)c3F)c2c(N)n1 (centres unmarked) [Example 128] in the records?
1 to 25 nM

Which value of IC50 has been reported for [2H]C([2H])([2H])c1nc(-c2ccc(NC(=O)C(O)c3cc(F)cc(C(F)(F)F)c3)c(F)c2F)c2c(N)ncc(C)n12 (centres unmarked) [Example 160] in the records?
1 to 25 nM

Which value of IC50 has been reported for [2H]C([2H])([2H])c1nc(-c2ccc(NC(=O)C(O)c3cc(F)cc(F)c3)c(F)c2F)c2c(N)ncc(Cl)n12 (centres unmarked) [Example 156] in the records?
1 to 25 nM

Which value of IC50 has been reported for [2H]C([2H])([2H])c1nc(-c2ccc(NC(=O)C(O)c3cccc(C(F)(F)F)c3)cc2C)c2c(N)ncc(Cl)n12 (centres unmarked) [Example 19] in the records?
26 to 50 nM

Which value of IC50 has been reported for Cc1cnc(N)c2c(-c3ccc(NC(=O)C(O)c4cccc(F)c4)cc3OC(F)(F)F)nc(C)n12 (centres unmarked) [Example 127] in the records?
101 to 250 nM

Which value of IC50 has been reported for [2H]C([2H])([2H])c1nc(-c2ccc(NC(=O)C(O)c3cc(F)cc(C(F)(F)F)c3)cc2C)c2c(N)ncc(C)n12 (centres unmarked) [Example 55] in the records?
101 to 250 nM

Which value of IC50 has been reported for [2H]C([2H])([2H])c1nc(-c2ccc(NC(=O)C(O)c3cccc(C(F)(F)F)c3)cc2C)c2c(N)ncc(C)n12 (centres unmarked) [Example 16] in the records?
> 5000 nM

###

The entries below come with measured pIC50 values attached.
Target: Recombinant human EIF2AK3 (PERK) catalytic domain (amino acids 536-1116) (Homo sapiens (Human), UniProt Q9NZJ5)
Sequence (Q9NZJ5 536-1116): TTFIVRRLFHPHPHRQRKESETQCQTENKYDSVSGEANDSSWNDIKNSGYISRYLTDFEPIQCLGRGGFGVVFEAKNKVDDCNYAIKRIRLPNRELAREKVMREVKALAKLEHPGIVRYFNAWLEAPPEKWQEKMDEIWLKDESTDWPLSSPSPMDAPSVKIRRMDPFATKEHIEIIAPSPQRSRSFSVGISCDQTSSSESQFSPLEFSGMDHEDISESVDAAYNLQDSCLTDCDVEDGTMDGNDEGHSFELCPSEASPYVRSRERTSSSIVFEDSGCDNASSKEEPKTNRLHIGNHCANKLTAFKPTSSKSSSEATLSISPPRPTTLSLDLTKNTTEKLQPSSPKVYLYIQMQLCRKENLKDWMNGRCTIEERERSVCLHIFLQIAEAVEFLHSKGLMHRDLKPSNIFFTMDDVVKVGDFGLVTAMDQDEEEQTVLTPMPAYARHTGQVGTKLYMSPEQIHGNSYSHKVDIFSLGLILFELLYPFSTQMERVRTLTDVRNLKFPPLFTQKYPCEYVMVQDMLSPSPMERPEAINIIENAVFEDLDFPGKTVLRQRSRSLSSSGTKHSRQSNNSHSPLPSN
Test: PERK In Vitro Activity Assay (isolated), TR-FRET kinase assay
Conditions: isolated PERK enzyme, 1.5 μM ATP, read-out: Biochemical IC50
pIC50: −log10 of the molar value.

# annotated cases, reported pIC50 shown
[2H]C([2H])([2H])c1nc(-c2ccc(NC(=O)C(O)c3cccc(F)c3)c(F)c2)c2c(N)ncc(C)n12 (stereo not shown) [Example 122] = 7.30 to 7.59
[2H]C([2H])([2H])c1nc(-c2ccc(NC(=O)C(O)c3cc(F)cc(C(F)(F)F)c3)cc2F)c2c(N)ncc(C(F)(F)F)n12 (stereo not shown) [Example 113] = 7.00 to 7.29
[2H]C([2H])([2H])c1nc(-c2ccc(NC(=O)C(O)c3cccc(C(F)(F)F)c3)cc2F)c2c(N)ncc(C(F)(F)F)n12 (stereo not shown) [Example 99] = 7.30 to 7.59

Lab note: next compound to report on.
Which value of pIC50 has been reported for Cc1cnc(N)c2c(-c3ccc(NC(=O)C(O)c4cccc(F)c4)cc3OC(F)(F)F)nc(C)n12 (stereo not shown) [Example 127] in the records?
7.60 to 9.00

###

Tested on: eIF2α in HEK293-EGFP-eIF2α cells
Assay: PERK Cellular Assay (HEK293-EGFP-eIF2α cells, tunicamycin-induced ER stress, TR-FRET)
Format: cell-based
Settings: tunicamycin 2 hours
The entries below come with measured IC50 values attached.

Cc1cnc(N)c2c(-c3ccc(NC(=O)C(O)c4cccc(F)c4)cc3)nc(C)n12 (stereo not drawn) [Example 68] = 101 to 250 nM
[2H]C([2H])([2H])c1nc(-c2ccc(NC(=O)C(O)c3cc(F)cc(C(F)(F)F)c3)c(F)c2F)c2c(N)ncc(C)n12 (stereo not drawn) [Example 161] = 101 to 250 nM

Lab note: next compound to report on.
Which value of IC50 has been reported for [2H]C([2H])([2H])c1nc(-c2ccc(NC(=O)C(O)c3cc(F)cc(C(F)(F)F)c3)cc2C)c2c(N)ncc(Cl)n12 (stereo not drawn) [Example 57] in the records?
26 to 50 nM

###

The entries below come with measured pIC50 values attached.
System: eIF2α in HEK293-EGFP-eIF2α cells
Experiment: PERK Cellular Assay (HEK293-EGFP-eIF2α cells, tunicamycin-induced ER stress, TR-FRET)
Assay type: cell-based
Settings: tunicamycin 2 hours
pIC50: −log10 of the molar value.

# annotated cases, reported pIC50 shown
Cc1cn2c(C)nc(-c3ccc(NC(=O)C(O)c4cccc(F)c4)c(F)c3F)c2c(N)n1 (stereo not shown) [Example 129] = < 5.30
[2H]C([2H])([2H])c1nc(-c2ccc(NC(=O)C(O)c3cc(F)cc(F)c3)c(F)c2F)c2c(N)ncc(C(F)(F)F)n12 (stereo not shown) [Example 158] = 7.60 to 9.00

Which value of pIC50 has been reported for [2H]C([2H])([2H])c1nc(-c2ccc(NC(=O)C(O)c3cc(F)cc(C(F)(F)F)c3)cc2C)c2c(N)ncc(C(F)(F)F)n12 (stereo not shown) [Example 60] in the records?
7.30 to 7.59

Which value of pIC50 has been reported for [2H]C([2H])([2H])c1nc(-c2ccc(NC(=O)C(O)c3cccc(Cl)c3)c(F)c2F)c2c(N)ncc(C(F)(F)F)n12 (stereo not shown) [Example 143] in the records?
6.30 to 6.60

Which value of pIC50 has been reported for Cc1cc(NC(=O)C(O)c2cccc(F)c2)ccc1-c1nc(C)n2c(C)cnc(N)c12 (stereo not shown) [Example 8] in the records?
7.30 to 7.59

Which value of pIC50 has been reported for [2H]C([2H])([2H])c1nc(-c2ccc(NC(=O)C(O)c3cccc(F)c3)cc2C)c2c(N)ncc(Cl)n12 (stereo not shown) [Example 32] in the records?
7.60 to 9.00
